Ref: PubChem BioAssay AID588342

EXPERIMENTAL_TARGET: Luciferin 4-monooxygenase (Photinus pyralis)
ASSAY_PROTOCOL: qHTS profiling assay for firefly luciferase inhibitor/activator using purifed enzyme and Km concentrations of substrates (counterscreen for miR-21 project); also: nearly all actives have a fitted effect of over 55% in size
ASSAY_SETUP: purified FLuc, luminescence inhibition; series mostly up to 57.5 µM
About 25,000 (6.9%) of roughly 360,000 compounds were called active. Not shown: some 9% with an inconclusive outcome. Calls follow the shape of the dose curve; as a rule, active = well fitted inhibition curve with a large enough effect; inconclusive = small, poorly fitted or top-dose-only effect; inactive = flat fitted curve, though single readings scatter. This excerpt belongs to a sample that is enriched for actives.
Outcomes: T (active), F (inactive)

>>> cat("COc1ccc(CNC(=O)C2=Cc3cccc(OC)c3OC2)cc1OC")
"F"
>>> cat("CCN(CC)Cc1cc(C(C)=O)ccc1O")
"F"
>>> cat("CC(=O)Nc1ccc(S(=O)(=O)N2CCN(S(=O)(=O)c3cccs3)CC2)cc1")
"F"
>>> cat("COc1cc(OC)cc(C(=O)NNC(=O)CCOc2ccccc2OC)c1")
"F"
>>> cat("O=C(Nc1ccccc1N1CCCC1)c1ccc2ccccc2c1")
"T"
>>> cat("Cc1ccc(N2C(=O)CC(NCc3ccc4c(c3)OCO4)C2=O)cc1Cl (configuration not stated)")
"F"
>>> cat("O=C(Nc1ccccc1N1CCCCC1)c1ccc2nccnc2c1")
"F"
>>> cat("CC(=O)CCC(=O)c1ccc2ccccc2c1")
"T"
>>> cat("Cc1cc(=O)oc2c(C)c(OC(C)C(=O)NC3CCN(Cc4ccccc4)CC3)ccc12 (configuration not stated)")
"F"
>>> cat("Cc1ccc(C)c(N2CCN(C(=O)CCc3c(C)nc4c(c3C)c(=O)n(C)c(=O)n4C)CC2)c1")
"F"
>>> cat("COc1ccc(OC)c(-n2nnc(-c3nc(-c4cc(OC)c(OC)c(OC)c4)no3)c2C)c1")
"F"
>>> cat("C/C(=N\\NC(=O)CCn1nc(C)cc1C)C(C)(C)C")
"F"
>>> cat("CN(CC(=O)Nc1ccc(OC(F)(F)F)cc1)C(=O)C1CCC1")
"F"
>>> cat("CCc1ccc2c(c1)cc(CN(C(=S)Nc1ccccc1Cl)C1CC1)c1nnnn12")
"F"
>>> cat("CSc1ccccc1OCc1cc(C(=O)N(C)CCc2c(C)n[nH]c2C)no1")
"F"
>>> cat("C[C@@H](NC(=O)c1nc[nH]c1C(=O)N1CCN(C(=O)OC(C)(C)C)CC1)c1ccccc1")
"F"
>>> cat("CC(=O)c1ccc2c(ccc3ccccc32)c1")
"T"
>>> cat("CC1CCN(C(=O)c2ccc3c(=O)n4c(nc3c2)CCCCC4)CC1")
"F"
>>> cat("COc1cccc(N2CC(NC(=O)c3ccc4ccccc4c3)CC2=O)c1 (configuration not stated)")
"F"
>>> cat("CSc1ccccc1OCc1cc(C(=O)N2C[C@H]3CC[C@H]2C3)no1")
"T"
>>> cat("O=C(Nc1ccccc1N1CCCC1)c1ccc(F)c(S(=O)(=O)N2CCOCC2)c1")
"F"
>>> cat("CCN(C(=O)CSc1nc(N)cc(=O)[nH]1)C1CCS(=O)(=O)C1 (configuration not stated)")
"F"

----------
EXPERIMENTAL_TARGET: Luciferin 4-monooxygenase (Photinus pyralis) (UniProt P08659)
Sequence (P08659 whole entry, looked up): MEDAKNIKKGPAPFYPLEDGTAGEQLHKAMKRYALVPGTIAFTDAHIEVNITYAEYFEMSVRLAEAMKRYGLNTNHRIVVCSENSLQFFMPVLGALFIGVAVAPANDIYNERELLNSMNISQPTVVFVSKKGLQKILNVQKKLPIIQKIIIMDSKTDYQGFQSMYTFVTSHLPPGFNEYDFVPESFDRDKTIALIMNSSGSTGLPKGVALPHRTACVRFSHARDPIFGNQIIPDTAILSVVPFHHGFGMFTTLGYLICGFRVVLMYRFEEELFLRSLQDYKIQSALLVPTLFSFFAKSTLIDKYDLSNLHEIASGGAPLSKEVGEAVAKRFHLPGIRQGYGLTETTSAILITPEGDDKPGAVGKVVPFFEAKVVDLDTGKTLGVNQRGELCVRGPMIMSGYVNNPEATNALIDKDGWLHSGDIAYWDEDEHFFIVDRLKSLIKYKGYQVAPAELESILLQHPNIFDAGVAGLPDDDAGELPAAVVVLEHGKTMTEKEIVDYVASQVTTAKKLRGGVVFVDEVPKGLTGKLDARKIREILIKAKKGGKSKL
ASSAY_PROTOCOL: qHTS profiling assay for firefly luciferase inhibitor/activator using purifed enzyme and Km concentrations of substrates (counterscreen for miR-21 project); also: nearly all actives have a fitted effect of over 55% in size
ASSAY_SETUP: purified FLuc, luminescence inhibition; series mostly up to 57.5 µM
Hit rate of the full screen: of about 360,000 compounds, about 25,000 (6.9%) were called active. About 9% were inconclusive and are not listed. Calls come from the whole dose curve; as a rule, active = well fitted inhibition curve with a large enough effect; inconclusive = small, poorly fitted or top-dose-only effect; inactive = flat fitted curve, though single readings scatter. What follows is part of a selection rich in actives, with near analogues and random picks from the rest.
Outcomes: true = active, false = inactive

>>> cat("COc1ccccc1-c1sc2ccccc2c1-c1ccc(C(C)=O)cc1")
"true"
>>> cat("CCOC(=O)C1CCN(c2csc3ccc(C)cc3c2=O)CC1")
"true"
>>> cat("CSc1ncc(C(=O)Nc2ccc(C)cc2C)c(C)n1")
"false"
>>> cat("CN(C)c1nc(=Nc2cccc(Cl)c2)ss1")
"true"
>>> cat("COc1ccccc1C1CCN(C(=S)Nc2ccc(Br)cc2)CC1")
"false"
>>> cat("COc1ccccc1N1CCN(c2ncnc3onc(-c4cccc(Cl)c4)c23)CC1")
"false"
>>> cat("Cc1cc(=O)n2[nH]c(-c3sccc3-n3c(C)ccc3C)cc2n1")
"false"
>>> cat("COc1ccc(C(=O)OCC(=O)NC(=O)CCSc2ccccc2)cc1")
"false"
>>> cat("CCCc1cc(=O)n2[nH]c(C)c(-c3ccc(Cl)cc3)c2n1")
"false"
>>> cat("Cc1csc2nc(COC(=O)c3ccccc3NC(=O)c3ccccc3Cl)cc(=O)n12")
"false"
>>> cat("Cc1cc(C)c(/C=C/c2onc(C)c2S(=O)(=O)N2CCC(C(=O)Nc3ccc(Cl)cc3C)CC2)c(C)c1")
"false"
>>> cat("COc1ccc(N(CCC(=O)NCCc2ccccc2)S(=O)(=O)c2ccc(C)cc2C)cc1")
"false"
>>> cat("COc1cc(C(=O)NCCc2csc3nc(-c4ccccc4C)nn23)cc(OC)c1OC")
"false"
>>> cat("COc1ccc(OC)c(CNC(=O)c2c3c(nc4ccccc24)C(=O)N(C2CCCCC2)C3)c1")
"false"
>>> cat("CN(CC(=O)NCCc1ccc(F)cc1)CC(=O)Nc1ccc(F)c(F)c1F")
"false"
>>> cat("O=C(COC(=O)c1cc(=O)[nH]c2ccccc12)NCc1cccc(Cl)c1")
"false"
>>> cat("COc1ccc(CCNC(=O)c2nn(C)c3c2CSc2ccccc2-3)cc1OC")
"false"
>>> cat("COc1cc2c(cc1OC)CN(C(C)C(=O)Nc1cccc(S(=O)(=O)N3CCOCC3)c1)CC2 (stereo not drawn)")
"false"
>>> cat("COc1cc(C(C)=O)ccc1OC(=O)CN1C(=O)c2ccccc2C1=O")
"false"
>>> cat("COc1ccc(Cc2nc3ccc(C(=O)NCc4ccccc4Cl)cc3o2)cc1")
"false"
>>> cat("Cc1ccc(S(=O)(=O)N2CCCCC2)cc1C(=O)N1CCN(CCO)CC1")
"false"
>>> cat("COc1ccc(NC(=O)CCCNC(=O)Cn2cnc3sc4c(c3c2=O)CCCC4)cc1OC")
"false"
>>> cat("CN(CC(=O)Nc1ccccc1C(F)(F)F)C(=O)Cc1ccccc1F")
"false"
>>> cat("O=C(C1CCN(CC2CCCCC2)CC1)N1CCCC1")
"false"
>>> cat("COc1ccc(C(=O)COC(=O)COc2ccc(C)c(C)c2)cc1")
"false"
>>> cat("COc1ccc2sc(-c3ccc(N(C)C)cc3)c(C#CCO)c2c1")
"true"
>>> cat("CCOC(=O)c1cccc(NS(=O)(=O)c2cn(C)c(C)n2)c1")
"false"
>>> cat("Cc1cc(=O)n2[nH]c(-c3cccc(Cl)c3)cc2n1")
"true"
>>> cat("CCN(C(=O)COC(=O)c1c(C)nn(-c2ccccc2)c1Cl)c1c(N)n(Cc2ccccc2)c(=O)[nH]c1=O")
"false"
>>> cat("CN(CC(=O)NCC(c1ccccc1)N1CCCC1)S(=O)(=O)c1ccc(Cl)cc1 (stereo not drawn)")
"false"
>>> cat("COc1ccc(C(C)(C)C)cc1NC(=O)CCN1C(=O)C2CCCCC2C1=O (stereo not drawn)")
"false"
>>> cat("Cc1cc(C)c2oc(C(=O)Nc3c(C(=O)Nc4ccccc4)oc4ccccc34)cc(=O)c2c1")
"false"
>>> cat("Cc1ccccc1OCc1nc2c3cnn(-c4ccccc4F)c3ncn2n1")
"false"
>>> cat("Cn1c(=O)[nH]c(=O)c2c1nc(NCCc1ccccc1)n2Cc1ccc(F)cc1")
"false"
>>> cat("CSc1nccc(NC(=O)c2ccc(C(C)(C)C)cc2)n1")
"true"
>>> cat("O=C(CCc1cn(Cc2ccc(F)cc2)c2ccccc12)NC1CCCCC1")
"false"
>>> cat("COc1ccc(C(=O)COC(=O)c2ccc3ccccc3n2)cc1")
"true"
>>> cat("CCCN1C(=O)C(O)(CC(=O)c2ccc(CC)cc2)c2cc(Br)ccc21 (stereo not drawn)")
"false"
>>> cat("CCOC(=O)CNC(=O)c1cc2c(=O)n3cccc(C)c3nc2s1")
"false"
>>> cat("COCCn1c(CCC(=O)Nc2cc(C)ccc2C)nc2cccnc21")
"false"
>>> cat("O=C(CNS(=O)(=O)c1ccc2ccccc2c1)Nc1ccc(F)c(F)c1F")
"false"
>>> cat("COc1ccccc1CNC(=O)C(=O)NCC(c1cccs1)S(=O)(=O)c1cccs1 (stereo not drawn)")
"false"
>>> cat("COC(=O)c1nc(NC(=O)c2ccc(F)cc2)n[nH]1")
"false"
